PROCEDURE TEXT: Pharmacokinetic study after single i.p. administration, serum and brain concentrations by LC-MS/MS, non-compartmental analysis
Format: in vivo, Albino Swiss mice
CONDITION DESCRIPTION: Albino Swiss, mouse, ip; serum; 5 min after 5 mg/kg i.p., mice; read-out: Cmax (maximal concentration)
PROPERTY LABEL: Cmax (ng/mL)

COc1ccccc1N1CCN(CC(O)CN2C(=O)c3ccccc3C2=O)CC1 (stereo not shown)
700

[P] O=C1c2ccccc2C(=O)N1CC(O)CN1CCN(c2cccc(C(F)(F)F)c2)CC1 (stereo not shown)
[Q] O=C1c2ccccc2C(=O)N1CC(O)CN1CCN(c2ccccc2)CC1 (stereo not shown)
[R] O=C1c2ccccc2C(=O)N1CC(O)CN1CCN(C(c2ccccc2)c2ccccc2)CC1 (stereo not shown)
Please rank these molecules by Cmax in descending order. Answer by naming the labels in the order asked.
Q, P, R
(Q: 596 ng/mL, P: 210 ng/mL, R: 131 ng/mL)

---

PROCEDURE TEXT: Pharmacokinetic study after single i.p. administration, serum and brain concentrations by LC-MS/MS, non-compartmental analysis
Assay type: in vivo, Albino Swiss mice
CONDITION DESCRIPTION: Albino Swiss, mouse, ip; serum; mice, 5 mg/kg i.p.; read-out: Vz/F
Method: The compounds F1, F2, F3, and F4 were suspended in a 1% Tween 80 solution in sterile water for injection and given to mice i.p. at a dose of 5 mg/kg (n = 3 per time point; all mice in procedure = 96) as a single injection at a volume of 10 mL/kg. At specific time points (5; 15; 30; 60; 120; 240; 360; and 480 min after compound administration), mice were sacrificed by decapitation under isoflurane (5%) anesthesia to harvest blood and brain for assays. […]
PROPERTY LABEL: Vd/F (L/kg)

O=C1c2ccccc2C(=O)N1CC(O)CN1CCN(c2cccc(C(F)(F)F)c2)CC1 (stereo not shown)
32.4

[P] O=C1c2ccccc2C(=O)N1CC(O)CN1CCN(c2ccccc2)CC1 (stereo not shown)
[Q] O=C1c2ccccc2C(=O)N1CC(O)CN1CCN(C(c2ccccc2)c2ccccc2)CC1 (stereo not shown)
[R] COc1ccccc1N1CCN(CC(O)CN2C(=O)c3ccccc3C2=O)CC1 (stereo not shown)
Please rank these compounds by Vd/F in descending order. Answer by naming the labels in the order asked.
Q, P, R
(Q: 55.8 L/kg, P: 32.6 L/kg, R: 18.2 L/kg)

---

Test system: mice
PROCEDURE TEXT: Formalin test
Type: in vivo, Albino Swiss mice
CONDITION DESCRIPTION: phase II (15–30 min); 20 mg/kg i.p.; vs vehicle
PROPERTY LABEL: Reduction of pain response, inflammatory phase (%)
Express it in %; write the number only.

Field: example entries. Status: answers known.
CC(C(=O)O)c1cccc(C(=O)c2ccccc2)c1 (centres unmarked) [Ketoprofen, ketoprofen, reference compound]
59.9
COc1ccccc1N1CCN(CC(O)CN2C(=O)c3ccccc3C2=O)CC1 (centres unmarked) [Compound F2]
87
O=C1c2ccccc2C(=O)N1CC(O)CN1CCN(c2ccccc2)CC1 (centres unmarked) [Compound F1]
90
O=C1c2ccccc2C(=O)N1CC(O)CN1CCN(C(c2ccccc2)c2ccccc2)CC1 (centres unmarked) [Compound F4]
42

Now for another entry.
Would you kindly share the measured Reduction of pain response, inflammatory phase for O=C1c2ccccc2C(=O)N1CC(O)CN1CCN(c2cccc(C(F)(F)F)c2)CC1 (centres unmarked) [Compound F3] ?
80.9

---

Below, each entry is listed alongside its reported Cmax.
PROCEDURE TEXT: Pharmacokinetic study after single i.p. administration, serum and brain concentrations by LC-MS/MS, non-compartmental analysis
Type: in vivo, Albino Swiss mice
CONDITION DESCRIPTION: brain; mice, 5 mg/kg i.p. single dose

Field: example entries. Status: answers known.
O=C1c2ccccc2C(=O)N1CC(O)CN1CCN(C(c2ccccc2)c2ccccc2)CC1 (stereo not shown)
163.5 µg/L(kg)
O=C1c2ccccc2C(=O)N1CC(O)CN1CCN(c2cccc(C(F)(F)F)c2)CC1 (stereo not shown)
202.25 µg/L(kg)
O=C1c2ccccc2C(=O)N1CC(O)CN1CCN(c2ccccc2)CC1 (stereo not shown)
970 µg/L(kg)

Now for another entry.
Would you kindly share the measured Cmax for COc1ccccc1N1CCN(CC(O)CN2C(=O)c3ccccc3C2=O)CC1 (stereo not shown) ?
465.38 µg/L(kg)

---

PROCEDURE TEXT: Pharmacokinetic study after single i.p. administration, serum and brain concentrations by LC-MS/MS, non-compartmental analysis
Assay type: in vivo, Albino Swiss mice
CONDITION DESCRIPTION: Albino Swiss, mouse, ip; serum; mice, 5 mg/kg i.p.; read-out: λz (terminal elimination rate constant) (converted)
Procedure: The compounds F1, F2, F3, and F4 were suspended in a 1% Tween 80 solution in sterile water for injection and given to mice i.p. at a dose of 5 mg/kg (n = 3 per time point; all mice in procedure = 96) as a single injection at a volume of 10 mL/kg. At specific time points (5; 15; 30; 60; 120; 240; 360; and 480 min after compound administration), mice were sacrificed by decapitation under isoflurane (5%) anesthesia to harvest blood and brain for assays. […]
PROPERTY LABEL: k el (s⁻¹)

COc1ccccc1N1CCN(CC(O)CN2C(=O)c3ccccc3C2=O)CC1 (stereo not shown) [Compound F2]
0.000256
O=C1c2ccccc2C(=O)N1CC(O)CN1CCN(c2cccc(C(F)(F)F)c2)CC1 (stereo not shown) [Compound F3]
0.000153
O=C1c2ccccc2C(=O)N1CC(O)CN1CCN(C(c2ccccc2)c2ccccc2)CC1 (stereo not shown) [Compound F4]
0.000239
O=C1c2ccccc2C(=O)N1CC(O)CN1CCN(c2ccccc2)CC1 (stereo not shown) [Compound F1]
0.000203

---

PROCEDURE TEXT: Pharmacokinetic study after single i.p. administration, serum and brain concentrations by LC-MS/MS, non-compartmental analysis
Format: in vivo, Albino Swiss mice
CONDITION DESCRIPTION: Albino Swiss, mouse, ip; brain; mice, 5 mg/kg i.p.
PROPERTY LABEL: Tmax (min)

O=C1c2ccccc2C(=O)N1CC(O)CN1CCN(c2cccc(C(F)(F)F)c2)CC1 (stereo not shown)
15
COc1ccccc1N1CCN(CC(O)CN2C(=O)c3ccccc3C2=O)CC1 (stereo not shown)
4.98

[1] O=C1c2ccccc2C(=O)N1CC(O)CN1CCN(c2ccccc2)CC1 (stereo not shown)
[2] O=C1c2ccccc2C(=O)N1CC(O)CN1CCN(C(c2ccccc2)c2ccccc2)CC1 (stereo not shown)
When their Tmax values are compared, which is larger, 1 or 2 ? State the label of the item chosen.
2

---

PROCEDURE TEXT: Pharmacokinetic study after single i.p. administration, serum and brain concentrations by LC-MS/MS, non-compartmental analysis
Assay type: in vivo, Albino Swiss mice
CONDITION DESCRIPTION: serum; mice, 5 mg/kg i.p.
Below, each entry is listed alongside its reported AUC0–8h.

O=C1c2ccccc2C(=O)N1CC(O)CN1CCN(C(c2ccccc2)c2ccccc2)CC1 (stereo not shown)
101.99 µg∙h/L(kg)
COc1ccccc1N1CCN(CC(O)CN2C(=O)c3ccccc3C2=O)CC1 (stereo not shown)
292.78 µg∙h/L(kg)
O=C1c2ccccc2C(=O)N1CC(O)CN1CCN(c2ccccc2)CC1 (stereo not shown)
205.95 µg∙h/L(kg)

Now for another entry.
Would you kindly share the measured AUC0–8h for O=C1c2ccccc2C(=O)N1CC(O)CN1CCN(c2cccc(C(F)(F)F)c2)CC1 (stereo not shown) ?
258.81 µg∙h/L(kg)

---

PROCEDURE TEXT: Pharmacokinetic study after single i.p. administration, serum and brain concentrations by LC-MS/MS, non-compartmental analysis
Type: in vivo, Albino Swiss mice
CONDITION DESCRIPTION: Albino Swiss, mouse, ip; brain; mice, 5 mg/kg i.p.; read-out: t1/2(λz) half-life in the elimination phase (converted)
PROPERTY LABEL: half-life (min)

Field: example entries. Status: answers known.
O=C1c2ccccc2C(=O)N1CC(O)CN1CCN(c2ccccc2)CC1 (stereo not shown) [Compound F1]
54.6
COc1ccccc1N1CCN(CC(O)CN2C(=O)c3ccccc3C2=O)CC1 (stereo not shown) [Compound F2]
54

[1] O=C1c2ccccc2C(=O)N1CC(O)CN1CCN(C(c2ccccc2)c2ccccc2)CC1 (stereo not shown) [Compound F4]
[2] O=C1c2ccccc2C(=O)N1CC(O)CN1CCN(c2cccc(C(F)(F)F)c2)CC1 (stereo not shown) [Compound F3]
When their half-life values are compared, which is larger, 1 or 2 ? State the label of the item chosen.
2
(2: 78.6 min, 1: 46.8 min)

---

PROCEDURE TEXT: Pharmacokinetic study after single i.p. administration, serum and brain concentrations by LC-MS/MS, non-compartmental analysis
Format: in vivo, Albino Swiss mice
CONDITION DESCRIPTION: serum; mice, 5 mg/kg i.p.
Below, each entry is listed alongside its reported AUC0-inf.

Field: example entries. Status: answers known.
O=C1c2ccccc2C(=O)N1CC(O)CN1CCN(c2ccccc2)CC1 (stereo not shown)
211.22 µg∙h/L(kg)
O=C1c2ccccc2C(=O)N1CC(O)CN1CCN(c2cccc(C(F)(F)F)c2)CC1 (stereo not shown)
280.26 µg∙h/L(kg)
O=C1c2ccccc2C(=O)N1CC(O)CN1CCN(C(c2ccccc2)c2ccccc2)CC1 (stereo not shown)
104.12 µg∙h/L(kg)

Now for another entry.
Would you kindly share the measured AUC0-inf for COc1ccccc1N1CCN(CC(O)CN2C(=O)c3ccccc3C2=O)CC1 (stereo not shown) ?
298.26 µg∙h/L(kg)
